B1: wild type AcrB (Escherichia coli multidrug transporter AcrB) [E. coli] / itself (parent)
chain: MPNFFIDRPIFAWVIAIIIMLAGGLAILKLPVAQYPTIAPPAVTISASYPGADAKTVQDTVTQVIEQNMNGIDNLMYMSSNSDSTGTVQITLTFESGTDADIAQVQVQNKLQLAMPLLPQEVQQQGVSVEKSSSSFLMVVGVINTDGTMTQEDISDYVAANMKDAISRTSGVGDVQLFGSQYAMRIWMNPNELNKFQLTPVDVITAIKAQNAQVAAGQLGGTPPVKGQQLNASIIAQTRLTSTEEFGKILLKVNQDGSRVLLRDVAKIELGGENYDIIAEFNGQPASGLGIKLATGANALDTAAAIRAELAKMEPFFPSGLKIVYPYDTTPFVKISIHEVVKTLVEAIILVFLVMYLFLQNFRATLIPTIAVPVVLLGTFAVLAAFGFSINTLTMFGMVLAIGLLVDDAIVVVENVERVMAEEGLPPKEATRKSMGQIQGALVGIAMVLSAVFVPMAFFGGSTGAIYRQFSITIVSAMALSVLVALILTPALCATMLKPIAKGDHGEGKKGFFGWFNRMFEKSTHHYTDSVGGILRSTGRYLVLYLIIVVGMAYLFVRLPSSFLPDEDQGVFMTMVQLPAGATQERTQKVLNEVTHYYLTKEKNNVESVFAVNGFGFAGRGQNTGIAFVSLKDWADRPGEENKVEAITMRATRAFSQIKDAMVFAFNLPAIVELGTATGFDFELIDQAGLGHEKLTQARNQLLAEAAKHPDMLTSVRPNGLEDTPQFKIDIDQEKAQALGVSINDINTTLGAAWGGSYVNDFIDRGRVKKVYVMSEAKYRMLPDDIGDWYVRAADGQMVPFSAFSSSRWEYGSPRLERYNGLPSMEILGQAAPGKSTGEAMELMEQLASKLPTGVGYDWTGMSYQERLSGNQAPSLYAISLIVVFLCLAALYESWSIPFSVMLVVPLGVIGALLAATFRGLTNDVYFQVGLLTTIGLSAKNAILIVEFAKDLMDKEGKGLIEATLDAVRMRLRPILMTSLAFILGVMPLVISTGAGSGAQNAVGTGVMGGMVTATVLAIFFVPVFFVVVRRRFSRKNEDIEHSHTVDHH

Variants of: B1
Test: BN-PAGE
Settings: with itself; read off a plot
The reader will find reported screen value values listed item by item below.
Could you keep your reply to the number by itself?

[[record]]
variant_designation = "chain 1 P800S P223G"
measured_property = "screen value"
val = 0.11


Can you look up the measured screen value of chain 1 T199M P223G for me?
0.7

Consider next the variant chain 1 A209V P223G in the same way.
0.4

chain 1 P223G , same question.
0.26
